Molecular target: GLS1 (purified recombinant human GAC) (Homo sapiens, UniProt O94925)
Sequence (O94925 55-598 isoform O94925-3 limits assumed): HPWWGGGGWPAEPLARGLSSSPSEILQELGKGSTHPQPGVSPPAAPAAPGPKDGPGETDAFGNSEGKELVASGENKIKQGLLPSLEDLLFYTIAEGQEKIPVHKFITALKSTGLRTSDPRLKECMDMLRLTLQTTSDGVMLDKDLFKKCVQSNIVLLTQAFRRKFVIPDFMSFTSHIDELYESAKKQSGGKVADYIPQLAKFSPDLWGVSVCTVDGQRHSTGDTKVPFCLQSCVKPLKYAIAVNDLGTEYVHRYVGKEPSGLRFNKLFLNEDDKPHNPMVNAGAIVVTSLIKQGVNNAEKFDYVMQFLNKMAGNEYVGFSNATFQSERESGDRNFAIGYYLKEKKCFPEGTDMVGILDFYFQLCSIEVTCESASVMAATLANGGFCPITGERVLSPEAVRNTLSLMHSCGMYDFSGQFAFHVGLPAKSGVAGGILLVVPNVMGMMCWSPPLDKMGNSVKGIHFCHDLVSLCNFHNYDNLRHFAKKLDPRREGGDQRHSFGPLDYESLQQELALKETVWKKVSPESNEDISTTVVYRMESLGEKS
Test: GLS1 enzymatic activity assay (dual-coupled, Amplex UltraRed/resorufin)

| compound | IC50 |
| --- | --- |
| O=C(NCc1cccc(OC(F)(F)F)c1)c1cn(CC(F)CCn2ccc(NC(=O)C(F)c3ccccc3)c(F)c2=O)nn1 (stereo not drawn) | < 100 nM |
| O=C(NCc1cc(C(F)(F)F)ccn1)c1cn(CC(F)CCn2ccc(COc3c(F)cccc3F)cc2=O)nn1 (stereo not drawn) | 100 to 500 nM |
| CO[C@@H](C(=O)Nc1ccn(CCC(F)Cn2cc(C(=O)NCc3cccc(OC(F)(F)F)c3)nn2)c(=O)c1F)c1ccccc1 (stereo partly drawn) | < 100 nM |

----------
Target: GLS1 (purified recombinant human GAC) (Homo sapiens)
Sequence (O94925 55-598 isoform O94925-3 limits assumed): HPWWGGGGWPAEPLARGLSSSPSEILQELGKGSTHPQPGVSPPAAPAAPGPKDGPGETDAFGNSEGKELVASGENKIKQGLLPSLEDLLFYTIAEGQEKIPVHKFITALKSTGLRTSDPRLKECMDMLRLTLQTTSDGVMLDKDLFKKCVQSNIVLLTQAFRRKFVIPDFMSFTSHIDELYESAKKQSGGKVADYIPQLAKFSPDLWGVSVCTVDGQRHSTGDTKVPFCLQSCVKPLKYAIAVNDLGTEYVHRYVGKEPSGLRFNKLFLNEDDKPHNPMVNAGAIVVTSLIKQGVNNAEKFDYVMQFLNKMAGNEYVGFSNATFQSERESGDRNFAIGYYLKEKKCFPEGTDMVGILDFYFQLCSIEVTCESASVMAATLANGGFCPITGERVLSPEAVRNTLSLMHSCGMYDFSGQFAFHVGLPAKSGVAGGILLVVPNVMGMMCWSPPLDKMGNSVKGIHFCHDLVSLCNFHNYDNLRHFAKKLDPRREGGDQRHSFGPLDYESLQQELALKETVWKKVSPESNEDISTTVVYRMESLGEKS
Experiment: GLS1 enzymatic activity assay (dual-coupled, Amplex UltraRed/resorufin)

| compound | IC50 |
| --- | --- |
| Nc1ccn(CCC(F)Cn2cc(C(=O)NCc3cccc(C(F)(F)F)n3)nn2)c(=O)c1F (stereo not drawn) | > 5 µM |
| CC(=O)OC(C(=O)Nc1ccn(CC[C@@H](F)Cn2cc(C(=O)NCc3cccc(OC(F)(F)F)c3)nn2)c(=O)c1F)c1ccccc1 (stereo in doubt) | < 0.1 µM |
| O=C(CC1CCCOC1)Nc1ccn(CCCCn2cc(C(=O)NCc3cccc(OC(F)(F)F)c3)nn2)c(=O)c1 (stereo not drawn) | < 0.1 µM |
| Cc1ccc(CNC(=O)c2nnc(CCCCn3ccc(NC(=O)Cc4cccc(OC(F)(F)F)c4)cc3=O)s2)cn1 | < 0.1 µM |
| Cc1ccc(CNC(=O)c2cn(CC(F)CCn3ccc(NC(=O)CC4CCCO4)cc3=O)nn2)cn1 (stereo not drawn) | 0.1 to 0.5 µM |
| O=C(Cc1ccccc1)Nc1ccn(CCC(F)Cn2cc(C(=O)NCc3ccc(OC(F)(F)F)cn3)nn2)c(=O)c1F (stereo not drawn) | < 0.1 µM |
